# study-system: Cytochrome P450 2D6 (Homo sapiens)
# method: qHTS Assay for Inhibitors and Substrates of Cytochrome P450 2D6 (AID 891); further: nearly all actives have a fitted effect of over 60% in size
# run-parameters: recombinant CYP2D6, luciferin-ME EGE luminescence; series mostly up to 57.1 µM
Records with an inconclusive call do not appear. The source made the active and inactive calls. The call rests on the fitted dose curve; in most records, active means well fitted inhibition curve with a large enough effect; inconclusive means small, poorly fitted or top-dose-only effect; inactive means no such curve, though single readings can be large or run the other way.
Entry note: the call must match one of t for active, f for inactive

Which outcome was assigned to "O=C(COc1ccc(Cl)cc1)N1CCN(Cc2ccc3c(c2)OCO3)CC1" in this test?
t

Which outcome was assigned to "COc1cccc2c1C(=O)c1c(O)c3c(c(O)c1C2=O)C[C@@](O)(C(C)=O)C[C@@H]3O[C@H]1C[C@H](N)[C@H](O)[C@H](C)O1" in this test?
f

Which outcome was assigned to "CN1CCC(=C2c3ccccc3Sc3ccccc32)CC1" in this test?
t

Which outcome was assigned to "COc1cc(-c2ccc(=O)[nH]n2)ccc1OC(F)F" in this test?
f

Which outcome was assigned to "CN(C(=O)CN(CCO)CC(=O)N(C)C(C)(C)Cc1ccccc1)C(C)(C)Cc1ccccc1" in this test?
t

Which outcome was assigned to "COc1ccc(CCN2CCC(Nc3nc4ccccc4n3Cc3ccc(F)cc3)CC2)cc1" in this test?
t

Which outcome was assigned to "CCN1CCC[C@H]1CNC(=O)c1c(OC)ccc(Br)c1OC" in this test?
t

Which outcome was assigned to "O=C1CCC(c2ccc(-n3ccnc3)cc2)=NN1" in this test?
t
